- targetOrTestSystem: UniProt P08908
- Sequence (P08908 whole entry): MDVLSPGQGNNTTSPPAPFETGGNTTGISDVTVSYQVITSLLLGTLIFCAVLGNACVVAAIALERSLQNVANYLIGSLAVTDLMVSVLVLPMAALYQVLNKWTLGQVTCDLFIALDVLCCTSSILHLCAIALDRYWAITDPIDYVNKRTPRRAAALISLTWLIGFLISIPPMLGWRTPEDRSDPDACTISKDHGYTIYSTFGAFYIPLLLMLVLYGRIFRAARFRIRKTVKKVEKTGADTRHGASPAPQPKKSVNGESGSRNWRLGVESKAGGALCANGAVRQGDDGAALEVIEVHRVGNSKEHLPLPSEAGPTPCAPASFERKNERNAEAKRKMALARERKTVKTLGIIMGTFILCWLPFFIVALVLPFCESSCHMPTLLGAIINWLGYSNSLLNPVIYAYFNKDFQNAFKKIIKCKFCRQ
metricName: AC50

* O=[N+]([O-])c1cncn1CCN1CCOCC1 [NIMORAZOLE] | > 30 µM
* NC(=O)c1cccc2cn(-c3ccc([C@@H]4CCCNC4)cc3)nc12 [NIRAPARIB] | > 30 µM
* O=C(COc1ccc(Cl)cc1)N1CCN(Cc2ccc3c(c2)OCO3)CC1 [FIPEXIDE] | > 30 µM
* Nc1nc2ccc(OC(F)(F)F)cc2s1 [RILUZOLE] | > 30 µM
* CCC1C(C)=NN=C(c2ccc(OC)c(OC)c2)c2cc(OC)c(OC)cc21 (centres undefined) [TOFISOPAM] | > 30 µM
* Nc1nc(N)c2nc(-c3ccccc3)c(N)nc2n1 | > 30 µM
* Oc1ncnc2[nH]ncc12 [ALLOPURINOL] | > 30 µM
* COc1cc(NCc2ccc3nc(N)nc(N)c3c2C)cc(OC)c1OC [TRIMETREXATE] | 8.06 µM
* O=C1c2c(O)c(=O)ccn2N([C@@H]2c3ccccc3SCc3c2ccc(F)c3F)[C@@H]2COCCN12 [BALOXAVIR] | > 30 µM
* CCCCN(CCCC)CCCOC(=O)c1ccc(N)cc1 [BUTACAINE] | 2.97 µM
* CCO[C@@H](Cc1ccc(OCCn2c(C)ccc2-c2ccc(SC)cc2)cc1)C(=O)O [SAROGLITAZAR] | > 30 µM
* CCS(=O)(=O)N1CC(CC#N)(n2cc(-c3ncnc4[nH]ccc34)cn2)C1 [BARICITINIB] | > 30 µM
* Nc1ccc(/N=N/c2ccccc2)c(N)n1 [PHENAZOPYRIDINE] | > 30 µM
* CN(Cc1cc(Br)cc(Br)c1N)C1CCCCC1 [BROMHEXINE] | > 30 µM
* CC1(C)O[C@@H]2C[C@H]3[C@@H]4C[C@H](F)C5=CC(=O)CC[C@]5(C)[C@H]4[C@@H](O)C[C@]3(C)[C@]2(C(=O)CO)O1 [FLURANDRENOLIDE] | > 30 µM
* CN(C)C(=O)Oc1ccc[n+](C)c1 [PYRIDOSTIGMINE] | > 30 µM
* Cc1c(O)cccc1C(=O)N[C@@H](CSc1ccccc1)[C@H](O)CN1C[C@H]2CCCC[C@H]2C[C@H]1C(=O)NC(C)(C)C | > 30 µM
* COc1cc(Nc2c(C#N)cnc3cc(OCCCN4CCN(C)CC4)c(OC)cc23)c(Cl)cc1Cl [BOSUTINIB] | 14.2 µM
* CC(=O)Oc1c(C)cc(OCC(O)CNC(C)C)c(C)c1C (centres undefined) [METIPRANOLOL] | > 30 µM

Reference source: ChEMBL document CHEMBL5291721
